Where do these numbers come from? They come from PubChem BioAssay (NCI).

Form field: growth (one value per entry).
# Test system: T-47D breast
# experiment-description: NCI-60 one-dose screen, 48 h (100 = growth as untreated, 0 = no growth, -100 = all killed)
# cond: 10 µM unless noted
This is part of a sample that, as a whole, favours compounds with a hit. Of some 83,000 tested, about 20% had one in any assay.
Give the value in % but do not write % after it.

Report growth on T-47D breast for this entry: O=C1CCC/C=C\C[C@H]2C=CC(=O)/C2=C/C[C@H](CCc2cccc(C(F)(F)F)c2)O1
-28

Give reported growth for Cc1nc2ccccc2n1-c1ncnc2c1CC(C)c1ccccc1N2C (stereo not given) (T-47D breast)
72.1

Recall the reported growth of Cc1nc2ccccc2n1CC1C(=O)NC(=O)NC1=O on T-47D breast and write it down.
107

Provide growth, system T-47D breast, entry CC(=O)OC[C@H]1OC(Sc2sc(C(=O)c3ccc(C)cc3)c(N)c2-c2nc3ccccc3s2)[C@H](OC(C)=O)[C@@H](OC(C)=O)[C@@H]1OC(C)=O (stereo not given in full)
69.7

Answer with growth of Cc1nn(-c2ccccc2)c2c1N=c1s/c(=C\c3ccc(C(F)(F)F)cc3)c(=O)n1CN2 measured for T-47D breast.
54

Enter recorded growth with T-47D breast for O=C(Nc1ccc(-c2nc(-c3cccc(OCCN4CCOCC4)c3)c(-c3ccnc(Br)c3)[nH]2)cc1)c1ccccc1 here.
27.6

// fetch growth for O=c1ccc(N=Nc2ccccc2)ccc1Cl ; system: T-47D breast
42.4

Report growth on T-47D breast for this entry: O=C(/C=C/c1sc(Cl)nc1Cl)c1ccccc1
98.3

More entries:
State, for T-47D breast, measured growth of the compound listed here: Cc1cc(-c2cc(C)c(N)cc2C)c(C)cc1N
90.4

Report its growth with T-47D breast as the test system: CCOC(=O)c1sc2ncc(-c3ccc(C)cc3)n2c1C
89
